# test_protocol: NCI Yeast Anticancer Drug Screen. Data for the mlh1 strain (AID 171);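 also: 0% = growth of vehicle-treated control cultures of the same strain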
# condition_context: S. cerevisiae mlh1 strain growth inhibition; at 100.0 µM
# Protocol: Growth inhibition of yeast strains with defined genetic alterations is measured as a screen for potential anti-cancer activity. Selected strains with alterations in DNA damage repair or cell cycle control were exposed to compounds and growth inhibition was measured relative to vehicle treated controls. The strain used in this assay is mlh1
Compounds without any hit were thinned out: in the full panel of roughly 79,000, 15% have a hit. Activity calls are given as the source filed them. Rule as the data show it: active = growth inhibition above about 70%; inactive = the rest.
Your reply should match one of these outcome classes. true (1) = active, false (0) = inactive

compound	discrete_label
CN(C)c1ccc(C2CC(C)(O)Oc3cc4c(cc32)OCO4)cc1 (configuration not stated)	false (0)
O=C(NCCCl)Sc1ccc(Cl)cc1	true (1)
CC(C)CN(CC(C)C)C(=O)c1ccc(Cl)c(Cl)c1	true (1)
COC(=O)/C=C(/CC(=O)OC)C(=O)OC	false (0)
COC(=O)CC1CCc2c(ccc3ccccc23)C1(C)C(=O)OC (configuration not stated)	false (0)
O=C1CSC(c2cccc(Cl)c2)N1c1ccc(-c2ccc(-n3c(-c4ccccc4)nc4ccccc4c3=O)cc2)cc1 (configuration not stated)	false (0)

Asked: # lookup: test call for Cc1ccccc1N=Cc1cc(Cl)ccc1O
Given back: true (1)

---

# test_protocol: NCI Yeast Anticancer Drug Screen. Data for the CLN2oe strain (AID 163);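 also: 0% = growth of vehicle-only control cultures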
# condition_context: S. cerevisiae CLN2oe strain, at 1.2 µM, hits give high values
Compounds without any hit were thinned out: in the full panel of roughly 79,000, 15% have a hit.
Reported growth inhibition values follow for various molecules
Your answer is read as %, so omit the unit and give the number.

As a guide, the following entries are already answered.
molecule	endpoint_value
Cc1csc(=S)n1OC(=O)NC1CCCCC1	-6
C[Si](C)(C)/C=C/CCNC(C#N)c1ccccc1 (stereo not drawn)	3
CC(C)CCCC(C)C1CCC2C3CCC4=CC(=O)/C(=C\O)CC4(C)C3CCC12C (stereo not drawn)	-3

Asked: Find the recorded growth inhibition belonging to CC(NCCN(C)C)C1CCC2C3CCc4cc(O)ccc4C3CCC12C (stereo not drawn) and report it.
Given back: 1

Asked: Then O=c1ssc(=Nc2ccccc2)n1-c1ccccc1 ?
Given back: 2

Asked: Then CCC(C)OC(=O)Nc1ccc(C)c(NC(=O)OC(C)CC)c1 (stereo not drawn) ?
Given back: 3

Asked: Then N#CNC(N)=Nc1cc2ccccc2c2ccccc12 ?
Given back: 38

Asked: Then CS(=O)(=O)OCCN(CCOS(C)(=O)=O)c1ccc(C=Nc2ccc(-c3csc(COc4ccccc4)n3)cc2)cc1 ?
Given back: 1

Asked: Then c1ccc2c(OCC3CO3)cccc2c1 (stereo not drawn) ?
Given back: -4

Asked: Then Cn1c(-c2ccc(/C=N\N3CCN(/N=C/c4ccc(-c5c[n+]6ccccc6n5C)cc4)CC3)cc2)c[n+]2ccccc12 ?
Given back: -22

Asked: Then O=C1Nc2ccc(Br)cc2C1=Nc1ccc2c(c1)OCO2 ?
Given back: 13

Asked: Then CCOC(=O)[C@H]1Nc2ccc(OC)cc2C2c3ccccc3CC21 (stereo partly drawn) ?
Given back: -23

Asked: Then Cc1c(C(C)C)cc(OCCO)cc1C(C)C ?
Given back: -3

---

# test_protocol: NCI Yeast Anticancer Drug Screen. Data for the wt1 strain (AID 149);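 also: 0% = growth of vehicle-treated wt1 cultures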
# condition_context: S. cerevisiae wt1 strain (SPY 50644) growth inhibition; at 100.0 µM
This is part of a sample that, as a whole, favours compounds with a hit. Of some 79,000 tested, about 15% had one in any assay. Activity calls are given as the source filed them. No stated cut-off is given here; in the data, active means growth inhibition above about 70%; inactive means the rest.
Your reply should match one of these outcome classes. active, inactive

molecule	discrete_label
CCOC1Oc2ccccc2-c2nc(N)ncc21 (stereo not drawn)	inactive
COc1cccc2c1C(=O)c1c(O)c3c(c(O)c1C2=O)CC(O)(C(O)CO)CC3OC1CC(N2CCOCC2)C(O)C(C)O1 (stereo not drawn)	active

Turning now to a further molecule:
Asked: # lookup: test call for Oc1ccc2c(c1)C(O)CCCC2 (stereo not drawn)
Given back: inactive

---

# test_protocol: NCI Yeast Anticancer Drug Screen. Data for the mec2-1 strain (AID 157)
# condition_context: S. cerevisiae mec2-1 strain, at 50.0 µM
This is part of a sample that, as a whole, favours compounds with a hit. Of some 79,000 tested, about 15% had one in any assay. The source made the active and inactive calls. No stated cut-off is given here; in the data, active means growth inhibition above about 70%; inactive means the rest.
Your reply should match one of these outcome classes. T (active), F (inactive)

molecule	discrete_label
CCc1c[n+]([O-])c(C)cc1[N+](=O)[O-]	F
Cc1ccc(NC(=O)/C(CC2N=c3c(ccc4c(O)c5ccccc5c(O)c34)=NC2O)=N/NC(C)(C)C)cc1 (stereo unspecified)	F
O=C1C=C(Cl)C(=O)C(c2ccc(Cl)cc2)=C1	T

Asked: # lookup: test call for O=P(NC1CCCCC1)(OCc1ccccc1)OCc1ccccc1
Given back: F

Asked: Then CNC(=O)OCc1c(COC(=O)NC)c(-c2ccc(Cl)cc2)n2c1CCC2 ?
Given back: F

Asked: Then CS(=O)(=O)SCc1ccc([N+](=O)[O-])cc1 ?
Given back: T

Asked: Then CCCCNC1CCC2(SCCS2)c2[nH]c3ccccc3c21 (stereo unspecified) ?
Given back: T

Asked: Then CCc1cc(O)c(Cl)c(C)c1Cl ?
Given back: F

Asked: Then CS(=O)(=O)OCCN(CCOS(C)(=O)=O)c1ccc(C=Nc2ccc(-c3csc(COc4ccccc4)n3)cc2)cc1 ?
Given back: T

Asked: Then Cc1c2ccnc(C(=O)NCCN(C)C)c2cc2c3cc(O)ccc3n(C)c12 ?
Given back: F

Asked: Then COC(=O)CC1(O)C(/C=C/c2ccccc2)C(C(=O)OC)C(=O)C(C(=O)OC)C1C(=O)OC (stereo unspecified) ?
Given back: F

Asked: Then C/C(=N\Nc1ccc([N+](=O)[O-])cc1[N+](=O)[O-])c1sc(-n2nc(-c3ccccc3)cc2-c2ccccc2)nc1C ?
Given back: F

Asked: Then CCCCCCCCCCCC(O)S(=O)(=O)O (stereo unspecified) ?
Given back: F

Asked: Then Cc1nc(Nc2ccccc2[N+](=O)[O-])sc1C(=O)CC(=O)C(=O)Nc1c(C(C)C)cccc1C(C)C ?
Given back: F

Asked: Then Nc1ncc(-c2ccc(Br)cc2)s1 ?
Given back: T

Asked: Then Oc1[nH]c2ccccc2c1N=NC(=S)N1CCCCC1 ?
Given back: T

Asked: Then Oc1ccc(-c2nc(-c3ccc(F)cc3)c(-c3ccc4ccccc4n3)[nH]2)cc1 ?
Given back: T

Asked: Then Cc1cc2c(cc1C)[n+]([O-])c(-c1nc3ccccc3s1)c(N)[n+]2[O-] ?
Given back: T

Asked: Then COC1CCC(O)C(/C=C/[N+](=O)[O-])C1 (stereo unspecified) ?
Given back: T

Asked: Then O=C1c2ccccc2C(=O)c2cc(CCl)ccc21 ?
Given back: F

---

# test_protocol: NCI Yeast Anticancer Drug Screen. Data for the bub3 strain (AID 167)
# condition_context: S. cerevisiae bub3 mutant strain, at 1.2 µM, hits give high values
About 79,000 compounds went through this panel and 15% of them were active in at least one assay; those are over-represented in the sample as a whole. Active and inactive are the calls of the source. Cut-off read from the data, not from the text of the source: active = growth inhibition above about 70%; inactive = the rest.
Reported growth inhibition values follow for various compounds

compound	endpoint_value
O=C(O)Cc1cc(F)ccc1C(=O)O	-1% (inactive)
CCO/C(C)=C(/C#N)C(N)=S	-4% (inactive)
CCc1c(Cl)c(C)cc(O)c1Cl	-8% (inactive)

Asked: Find the recorded growth inhibition belonging to O=C1OC(C2=CC(=O)c3ccccc3C2=O)C(Cl)=C1Cl (stereo not given) and report it.
Given back: 3% (inactive)

Asked: Then O=P(NC1CCCCC1)(OCc1ccccc1)OCc1ccccc1 ?
Given back: 0% (inactive)

---

# test_protocol: NCI Yeast Anticancer Drug Screen. Data for the mec2-1 strain (AID 157)
# condition_context: S. cerevisiae mec2-1 strain, at 50.0 µM, hits give high values
Compounds without any hit were thinned out: in the full panel of roughly 79,000, 15% have a hit.
Reported growth inhibition values follow for various compounds
Your answer is read as %, so omit the unit and give the number.

compound	measured_attribute	endpoint_value
Cc1c2cc[n+](Cc3ccc(I)cc3)cc2c(C)c2c1[nH]c1ccccc12	growth inhibition	87.2
CCOC(=O)c1[nH]n(-c2ccccc2)c(=O)c1C=NC(=S)C(N)=S	growth inhibition	90.7
CC1OC(O[C@H]2/C=C/C=C/C=C/C=C/C=C/C=C/C=C/[C@H](C)[C@@H](O)[C@@H](C)[C@H](C)OC(=O)C[C@H](O)C[C@H](O)CC[C@@H](O)[C@H](O)C[C@H](O)C[C@]3(O)C[C@H](O)[C@@H](C(=O)O)[C@H](C2)O3)C(O)C(N)C1O (stereo partly specified)	growth inhibition	99.4
COc1cc2cc3c4cc(OC)c(OC)cc4cc[n+]3c(C)c2cc1OC	growth inhibition	6.05
COC1=C(N)C(=O)c2nc(-c3nc(C(=O)O)c(C)c(-c4ccc(OC)c(OC)c4O)c3N)ccc2C1=O	growth inhibition	94
COc1cccc(/C=N/C(/N=C/c2cccc(OC)c2O)c2cccc(OC)c2O)c1O	growth inhibition	87

Asked: Find the recorded growth inhibition belonging to CCCCCCCCCCCCNC(C)=O and report it.
Given back: 83

Asked: Then COc1cc(C2SCC(=O)N2c2ccc(-c3ccc(-n4c(-c5ccccc5)nc5ccccc5c4=O)cc3)cc2)ccc1O (stereo unspecified) ?
Given back: 34

Asked: Then COc1cc(/C=C2\NC(=O)N(/C=C3\C(=O)Oc4ccccc4C3=O)C2=O)ccc1O ?
Given back: 77.5

Asked: Then N#CNC(N)=Nc1cc2ccccc2c2ccccc12 ?
Given back: 67.1

Asked: Then Cc1cccc[n+]1C1CCc2c(ccc3ccccc23)C1=O (stereo unspecified) ?
Given back: 74.3
